# MEASUREMENT TARGET: Inhibitor of nuclear factor kappa-B kinase subunit epsilon (Homo sapiens, UniProt Q14164)
# Sequence (Q14164 whole entry): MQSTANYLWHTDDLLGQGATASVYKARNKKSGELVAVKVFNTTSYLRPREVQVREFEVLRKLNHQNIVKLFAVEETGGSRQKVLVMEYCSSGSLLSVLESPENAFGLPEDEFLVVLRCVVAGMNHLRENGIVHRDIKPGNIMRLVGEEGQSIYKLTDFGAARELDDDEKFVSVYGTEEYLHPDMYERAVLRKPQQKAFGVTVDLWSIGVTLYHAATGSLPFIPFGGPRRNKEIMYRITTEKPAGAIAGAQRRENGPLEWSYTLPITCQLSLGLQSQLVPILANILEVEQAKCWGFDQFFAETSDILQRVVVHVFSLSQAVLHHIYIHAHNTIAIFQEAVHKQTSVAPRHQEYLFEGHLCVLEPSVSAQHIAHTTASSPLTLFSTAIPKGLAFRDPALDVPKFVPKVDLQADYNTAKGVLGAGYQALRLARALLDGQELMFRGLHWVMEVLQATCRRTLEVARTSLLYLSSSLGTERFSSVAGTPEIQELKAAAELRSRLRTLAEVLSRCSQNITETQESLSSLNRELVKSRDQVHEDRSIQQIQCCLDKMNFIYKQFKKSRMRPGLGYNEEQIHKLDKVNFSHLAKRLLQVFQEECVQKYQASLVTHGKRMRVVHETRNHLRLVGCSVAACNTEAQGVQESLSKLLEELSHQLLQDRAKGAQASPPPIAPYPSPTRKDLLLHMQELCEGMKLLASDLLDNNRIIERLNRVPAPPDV
# ASSAY PROCEDURE: Inhibition of recombinant full length human C-terminal GST-tagged IKKepsilon expressed in baculovirus expression system using biotin-labelled Ahx-GDEDFSSFAEPG peptide as substrate preincubated with enzyme for 15 mins followed by substrate addition and further incubated for 30 mins in presence of 10 uM of ATP by TR-FRET assay
pIC50: −log10 of the molar value.
Class definitions on pIC50: bin 1 (below 7), bin 2 (7 to below 8), bin 3 (8 or more)

Below, 8 compounds whose answers are already recorded.
| COMPOUND | CAT |
| --- | --- |
| C[C@H](c1ccnc(Nc2nc3ccc(-c4cc(OCC5CC5)ncn4)cc3[nH]2)c1)N1CCN(C(=O)CC(F)(F)F)CC1 | bin 3 |
| Cc1noc(-c2ccc3nc(Nc4cc(CN5CCN(C(=O)CC(F)(F)F)CC5)ccn4)[nH]c3c2)n1 | bin 1 |
| Cc1noc(-c2ccc3nc(Nc4cc(C(=O)N5CCN(C(=O)CC(F)(F)F)CC5)ccn4)[nH]c3c2)n1 | bin 1 |
| COCc1cc(-c2ccc3nc(Nc4cc([C@@H](C)N5CCN(C(=O)CC(F)(F)F)CC5)ccn4)[nH]c3c2)ncn1 | bin 3 |
| Cc1noc(-c2ccc3nc(Nc4cc(CN5CCN(C(=O)CC6CC6)CC5)ccn4)[nH]c3c2)n1 | bin 1 |
| Cc1noc(-c2ccc3nc(Nc4cc(CN5CCN(CCC(F)(F)F)CC5)ccn4)[nH]c3c2)n1 | bin 1 |
| Cc1noc(-c2ccc3nc(Nc4cc([C@@H](C)N5CCN(C(=O)CC(F)(F)F)CC5)ccn4)[nH]c3c2)n1 | bin 2 |
| Cc1noc(-c2ccc3nc(Nc4cc(C(C)N5CCN(C(=O)CC(F)(F)F)CC5)ccn4)[nH]c3c2)n1 (racemic) | bin 1 |

Data request: Quick check: band for Cc1noc(-c2ccc3nc(Nc4cc(CN5CCN(C(=O)C6CCC6)CC5)ccn4)[nH]c3c2)n1
Data returned: bin 1

Data request: Quick check: band for Cc1noc(-c2ccc3nc(Nc4cc([C@H](C)N5CCN(C(=O)CC(F)(F)F)CC5)ccn4)[nH]c3c2)n1
Data returned: bin 1

---

# ASSAY PROCEDURE: Clearance in Wistar rat at 0.30 mg/kg, iv via bolus measured upto 24 hrs by LC-MS/MS analysis
# Format: ADME, organism-based
# TEST PARAMETERS: in vivo, 0.3 mg/kg
QUANTITY KIND: clearance

Data request: # return recorded clearance for entry C[C@H](c1ccnc(Nc2nc3ccc(-c4cc(N(C)C)ncn4)cc3[nH]2)c1)N1CCN(C(=O)CC(F)(F)F)CC1
Data returned: 66.7 mL/min/kg

---

# MEASUREMENT TARGET: Serine/threonine-protein kinase ULK1 (Homo sapiens, UniProt O75385)
# Sequence (O75385 whole entry): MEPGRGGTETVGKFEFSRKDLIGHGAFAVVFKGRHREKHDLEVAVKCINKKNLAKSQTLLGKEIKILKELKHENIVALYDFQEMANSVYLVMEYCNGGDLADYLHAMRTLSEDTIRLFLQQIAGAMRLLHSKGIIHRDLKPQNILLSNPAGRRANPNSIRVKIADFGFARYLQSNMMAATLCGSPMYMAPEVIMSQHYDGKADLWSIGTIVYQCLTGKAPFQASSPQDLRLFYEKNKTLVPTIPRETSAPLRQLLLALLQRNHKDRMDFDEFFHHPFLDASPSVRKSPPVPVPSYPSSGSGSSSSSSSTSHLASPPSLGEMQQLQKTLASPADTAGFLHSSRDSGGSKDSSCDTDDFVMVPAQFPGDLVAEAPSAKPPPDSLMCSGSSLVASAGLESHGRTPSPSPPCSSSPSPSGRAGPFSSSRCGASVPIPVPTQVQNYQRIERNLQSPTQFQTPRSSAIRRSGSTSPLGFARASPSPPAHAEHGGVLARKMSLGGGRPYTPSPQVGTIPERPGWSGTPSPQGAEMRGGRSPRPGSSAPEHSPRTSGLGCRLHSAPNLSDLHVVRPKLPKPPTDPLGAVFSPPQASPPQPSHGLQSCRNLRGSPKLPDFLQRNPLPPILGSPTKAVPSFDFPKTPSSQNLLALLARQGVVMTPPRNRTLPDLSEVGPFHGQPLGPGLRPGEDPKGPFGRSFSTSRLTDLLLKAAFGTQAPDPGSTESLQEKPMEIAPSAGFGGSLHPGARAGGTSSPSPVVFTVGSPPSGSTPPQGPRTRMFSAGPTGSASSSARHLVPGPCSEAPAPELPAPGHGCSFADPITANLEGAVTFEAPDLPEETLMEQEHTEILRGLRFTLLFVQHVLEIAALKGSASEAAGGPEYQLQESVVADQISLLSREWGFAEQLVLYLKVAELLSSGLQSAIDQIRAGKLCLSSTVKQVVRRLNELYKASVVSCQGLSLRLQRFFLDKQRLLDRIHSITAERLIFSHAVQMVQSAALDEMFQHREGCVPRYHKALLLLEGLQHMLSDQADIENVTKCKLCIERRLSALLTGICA
// reported IC50 for each item listed
Numbers only here, please. The scale is µM.

Record excerpt, results attached:
| SAMPLE SMILES | MEASURE UNIT | VALUE MEASURED |
| --- | --- | --- |
| C[C@H](c1ccnc(Nc2nc3ccc(-c4cnn(CC5CC5)c4)cc3[nH]2)c1)N1CCN(C(=O)CC(F)(F)F)CC1 | µM | 0.009 |
| CC(C)Oc1cncnc1-c1ccc2nc(Nc3cc([C@@H](C)N4CCN(C(=O)CC(F)(F)F)CC4)ccn3)[nH]c2c1 | µM | 0.263 |
| C[C@H](c1ccnc(Nc2nc3ccc(-c4cc(OCC5CC5)ncn4)cc3[nH]2)c1)N1CCN(C(=O)CC(F)(F)F)CC1 | µM | 0.416 |
| C[C@H](c1ccnc(Nc2nc3ccc(-c4cc(N(C)C)ncn4)cc3[nH]2)c1)N1CCN(C(=O)CC(F)(F)F)CC1 | µM | 7.93 |
| O=C(CC(F)(F)F)N1CCN(Cc2ccnc(Nc3nc4ccc(-c5cnn(CC6CC6)c5)cc4[nH]3)c2)CC1 | µM | 0.028 |

Data request: # return recorded IC50 for entry COCc1cc(-c2ccc3nc(Nc4cc([C@@H](C)N5CCN(C(=O)CC(F)(F)F)CC5)ccn4)[nH]c3c2)ncn1
Data returned: 0.368

Data request: # return recorded IC50 for entry Cc1cc(-c2ccc3nc(Nc4cc([C@@H](C)N5CCN(C(=O)CC(F)(F)F)CC5)ccn4)[nH]c3c2)ncn1
Data returned: 0.98

Data request: # return recorded IC50 for entry CNc1cc(-c2ccc3nc(Nc4cc(CN5CCN(C(=O)CC(F)(F)F)CC5)ccn4)[nH]c3c2)ncn1
Data returned: 1.64
